details: in methanol, 293.15 K
MEASURED ENDPOINT: solubility (mole fraction)
Returns: the value as a bare number; no unit string appended.

O=P(Oc1ccccc1)(Oc1ccccc1)N1CCN(P(=O)(Oc2ccccc2)Oc2ccccc2)CC1 yielded solubility (mole fraction) of 3.28e-05

----------
conditions: in ethanol, 313.15 K
MEASURED ENDPOINT: solubility (mole fraction)
Returns: the value as a bare number; no unit string appended.

O=P(Oc1ccccc1)(Oc1ccccc1)N1CCN(P(=O)(Oc2ccccc2)Oc2ccccc2)CC1 yielded solubility (mole fraction) of 0.00113

----------
conditions: in ethanol, 328.15 K
MEASURED ENDPOINT: solubility (mole fraction)
Returns: the value as a bare number; no unit string appended.

O=P(Oc1ccccc1)(Oc1ccccc1)N1CCN(P(=O)(Oc2ccccc2)Oc2ccccc2)CC1 yielded solubility (mole fraction) of 0.00186

----------
settings: in toluene, 333.15 K
MEASURED ENDPOINT: solubility (mole fraction)
Returns: the value as a bare number; no unit string appended.

O=P(Oc1ccccc1)(Oc1ccccc1)N1CCN(P(=O)(Oc2ccccc2)Oc2ccccc2)CC1 yielded solubility (mole fraction) of 0.00251

----------
conditions: in benzene, 318.15 K
MEASURED ENDPOINT: solubility (mole fraction)

O=P(Oc1ccccc1)(Oc1ccccc1)N1CCN(P(=O)(Oc2ccccc2)Oc2ccccc2)CC1 yielded solubility (mole fraction) of 0.00632

----------
settings: in ethyl acetate, 333.15 K
MEASURED ENDPOINT: solubility (mole fraction)
Returns: the value as a bare number; no unit string appended.

O=P(Oc1ccccc1)(Oc1ccccc1)N1CCN(P(=O)(Oc2ccccc2)Oc2ccccc2)CC1 yielded solubility (mole fraction) of 0.00437

----------
details: in ethyl acetate, 308.15 K
MEASURED ENDPOINT: solubility (mole fraction)
Returns: the value as a bare number; no unit string appended.

O=P(Oc1ccccc1)(Oc1ccccc1)N1CCN(P(=O)(Oc2ccccc2)Oc2ccccc2)CC1 yielded solubility (mole fraction) of 0.00158

----------
details: in acetone, 318.15 K
MEASURED ENDPOINT: solubility (mole fraction)

O=P(Oc1ccccc1)(Oc1ccccc1)N1CCN(P(=O)(Oc2ccccc2)Oc2ccccc2)CC1 yielded solubility (mole fraction) of 0.000795

----------
conditions: in methanol, 318.15 K
MEASURED ENDPOINT: solubility (mole fraction)
Returns: the value as a bare number; no unit string appended.

O=P(Oc1ccccc1)(Oc1ccccc1)N1CCN(P(=O)(Oc2ccccc2)Oc2ccccc2)CC1 yielded solubility (mole fraction) of 0.000415

----------
conditions: in ethanol, 333.15 K
MEASURED ENDPOINT: solubility (mole fraction)
Returns: the value as a bare number; no unit string appended.

O=P(Oc1ccccc1)(Oc1ccccc1)N1CCN(P(=O)(Oc2ccccc2)Oc2ccccc2)CC1 yielded solubility (mole fraction) of 0.00221

----------
conditions: in ethyl acetate, 318.15 K
MEASURED ENDPOINT: solubility (mole fraction)

O=P(Oc1ccccc1)(Oc1ccccc1)N1CCN(P(=O)(Oc2ccccc2)Oc2ccccc2)CC1 yielded solubility (mole fraction) of 0.00242
